Test system: Vero E6
method description: cell viability relative to DMSO; higher = less toxic
condition label: 72 h; 10 nM
Structures can show the parent of a compound that is named as a salt.

compound | cell viability (%)
C[N+]1(C)[C@@H]2CC[C@H]1C[C@@H](OC(=O)C(O)c1ccccc1)C2 (some centres undefined) [homatropine-methylbromide] | 97.5
Fc1ccc(C(OCCN2CCN(CCCc3ccccc3)CC2)c2ccc(F)cc2)cc1 | 104
Cc1ccc(F)c(NC(=O)Nc2ccc(-c3cccc4[nH]nc(N)c34)cc2)c1 | 101
CCC1(C)CC(=O)NC1=O (centres undefined) [ethosuximide] | 106
CN(C)CCCN1c2ccccc2CCc2ccccc21 | 98.7
COc1cccc(C2(O)CCCCC2CN(C)C)c1 (centres undefined) [TRAMADOL HYDROCHLORIDE] | 103
Cc1cc2nc3c(=O)[nH]c(=O)nc-3n(C)c2cc1C=O | 94.3
O=C1CCC2CCC(=O)N12 | 105
CCOc1ccc2nc3cc(N)ccc3c(N)c2c1 [ethacridine-lactate-monohydrate] | 101

====

System: Calu-3
method description: cell viability relative to DMSO; higher = less toxic
condition label: 72 h; 1000 nM

molecule | measure unit | cell viability
CCOCc1nc2c(N)nc3ccccc3c2n1CC(C)(C)O [resiquimod] | % | 101
COCCNC(=O)COc1ccc(OCCNC[C@H](O)COc2ccccc2)cc1 [ZD-7114] | % | 90
O=C(NCC1(N2CCN(c3ccccc3)CC2)CCOCC1)c1cccnc1Sc1ccccc1 | % | 99.8
CO[C@@]1(NC(=O)CSCC#N)C(=O)N2C(C(=O)O)=C(CSc3nnnn3C)CS[C@@H]21 [cefmetazole] | % | 108
O=C(O)c1ccccc1 [benzoic-acid] | % | 99.2
CCCCCCC[N+](CC)(CC)CCCCc1ccc(Cl)cc1 [clofilium] | % | 93.6
C#Cc1cccc(Nc2ncnc3cc4c(cc23)OCCOCCOCCO4)c1 [icotinib] | % | 66.1
Cc1cc2c(cc1C(F)(F)F)N(C(=O)Nc1ccc(Oc3cccnc3C)nc1)CC2 | % | 104
O=c1cccc2n1C[C@H]1C[C@@H]2CN(CCN2C[C@@H]3C[C@H](C2)c2cccc(=O)n2C3)C1 [CC4] | % | 119
C[C@@]12CCc3occc3[C@H]1CC[C@@]13C[C@@H](CC[C@H]12)[C@@](O)(CO)C3 [cafestol] | % | 112
CN(C(=O)CN(CCO)CC(=O)N(C)C(C)(C)Cc1ccccc1)C(C)(C)Cc1ccccc1 [oxethazaine] | % | 97.6
CN(C)CCCN1c2ccccc2CCc2ccccc21 [imipramine] | % | 108
NC(=O)C1=CN([C@@H]2O[C@H](COP(=O)(O)OP(=O)(O)OC[C@H]3O[C@@H](n4cnc5c(N)ncnc54)[C@H](O)[C@@H]3O)[C@@H](O)[C@H]2O)C=CC1 [coenzyme-I] | % | 93.2
O=C(/C=C/N1C[C@H]2C[C@@H]1CN2c1ccccn1)c1ccccc1O [PFI-3] | % | 96.1
CS(=O)(=O)CCNCc1ccc(-c2ccc3ncnc(Nc4ccc(OCc5cccc(F)c5)c(Cl)c4)c3c2)o1 [lapatinib] | % | 35.8
CC[C@H](C)[C@H](N)C1=N[C@H](C(=O)N[C@@H](CC(C)C)C(=O)N[C@H](CCC(=O)[O-])C(=O)N[C@H](C(=O)N[C@H]2CCCCNC(=O)[C@H](CC(N)=O)NC(=O)[C@@H](CC(=O)[O-])NC(=O)[C@H](Cc3cnc[nH]3)NC(=O)[C@@H](Cc3ccccc3)NC(=O)[C@H]([C@@H](C)CC)NC(=O)[C@@H](CCCN)NC2=O)[C@@H](C)CC)CS1.[Zn+2] [bacitracin-zinc] | % | 99.9
O=c1[nH]cc(F)c(=O)[nH]1 [5-fluorouracil] | % | 101
O=C1NC(=O)/C(=C/c2ccc3nccc(-c4ccncc4)c3c2)S1 | % | 89.1
C1CCN2C[C@@H]3C[C@@H](CN4CCCC[C@@H]34)[C@H]2C1 [sparteine-sulfate] | % | 116
CC1(C)S[C@@H]2[C@H](NC(=O)[C@H](C(=O)O)c3ccsc3)C(=O)N2[C@H]1C(=O)O [ticarcillin] | % | 97.7
CC(C)[C@H](CO)Nc1nc(Nc2ccc(C(=O)O)c(Cl)c2)c2ncn(C(C)C)c2n1 [purvalanol-B] | % | 114
COc1ccc2c(c1)C(=O)N(CCc1ccc(S(=O)(=O)NC(=O)NC3CCCCC3)cc1)C(=O)C2(C)C [gliquidone] | % | 104
C[N+]1(C)CCC(OC(=O)C(O)(c2ccccc2)C2CCCC2)C1 (stereo not drawn) [glycopyrrolate] | % | 102
O=C(Nc1c(-c2cccs2)nc2ccccn12)c1ccc(Cl)cc1 | % | 86.9
CC(C)(C)NCC(O)c1cc(Cl)c(N)c(C(F)(F)F)c1 (stereo not drawn) [mabuterol] | % | 92.8
C#C[C@]1(O)CC[C@H]2[C@@H]3CCC4=CC(=O)CC[C@@H]4[C@H]3C(=C)C[C@@]21CC [etonogestrel] | % | 97.6
Cn1cc(C[C@@H](N)C(=O)O)c2ccccc21 [indoximod] | % | 103
CNC(=O)c1ccc(Nc2ncc(C(F)(F)F)c(NCc3nccnc3N(C)S(C)(=O)=O)n2)cc1 [defactinib] | % | 88.1
N#CN1CCCC1 [pyrrolidine-1-carbonitrile] | % | 107
N=C(N)c1ccc(/C=C/c2ccc(C(=N)N)cc2O)cc1 [hydroxystilbamidine] | % | 102
Cc1noc2c1-c1ccccc1C(c1ccc(Cl)cc1)=N[C@H]2CC(N)=O [CPI-0610] | % | 90
C[N+]1(C)[C@@H]2CC[C@H]1C[C@@H](OC(=O)C(O)c1ccccc1)C2 (stereo partly drawn) [homatropine-methylbromide] | % | 94.2
Cc1ccc(C(=O)Nc2ccc(Oc3cc4cnn(C)c4cc3-c3cn[nH]c3)c(F)c2)c(=O)n1-c1ccc(F)cc1 | % | 70.7

====

Reported cell viability values for a set of molecules
Tested on: Calu-3
method description: cell viability relative to DMSO; higher = less toxic
condition label: 72 h; 10000 nM
Counter-ions that a name gives are not always drawn.

molecule | measure unit | cell viability
CS(=O)(=O)CCNCc1ccc(-c2ccc3ncnc(Nc4ccc(OCc5cccc(F)c5)c(Cl)c4)c3c2)o1 | % | 24.5
COc1ccc(-c2ccc(=N)n(CCCC(=O)O)n2)cc1 | % | 93.5
CSc1ccc(C(=O)N[C@@H]2CCCC[C@@H]2NC(=O)CNC(=O)c2cc(C(F)(F)F)ccc2NC(=O)NC(C)C)cc1 | % | 101
CO/N=C(\C(=O)N[C@@H]1C(=O)N2C(C(=O)O)=C(Cn3ccc(=N)n3CCO)CS[C@H]12)c1csc(N)n1 [Cefoselis sulfate] | % | 104
N=C(Nc1ccc(I)cc1)NC1C2CC3CC(C2)CC1C3 (stereo not drawn) | % | 77.2
Cc1noc2c1-c1ccccc1C(c1ccc(Cl)cc1)=N[C@H]2CC(N)=O | % | 64.7
C#Cc1cccc(Nc2ncnc3cc4c(cc23)OCCOCCOCCO4)c1 | % | 50.8
COc1ccc2c(c1OC)C(=O)O[C@@H]2[C@H]1c2c(cc3c(c2OC)OCO3)CCN1C | % | 95.8

====

Test system: Calu-3
method description: cell viability relative to DMSO; higher = less toxic
condition label: 72 h; 10000 nM
Counter-ions that a name gives are not always drawn.

compound | measured on | measure unit | cell viability
C[C@H](N/C(=N/C#N)Nc1cccc2ncccc12)c1ccccc1 | Calu-3 | % | 94.8
COc1cccc(C2(O)CCCCC2CN(C)C)c1 (centres undefined) [TRAMADOL HYDROCHLORIDE] | Calu-3 | % | 96.2
CCCCc1nc2cc(/C=C/C(=O)NO)ccc2n1CCN(CC)CC [SB-939] | Calu-3 | % | 7.8
COC(=O)/C=C/c1cc(O)ccc1O [erbstatin-analog] | Calu-3 | % | 73.3
COc1cc(C(=O)OCCCN2CCCN(CCCOC(=O)c3cc(OC)c(OC)c(OC)c3)CC2)cc(OC)c1OC [dilazep] | Calu-3 | % | 88.1
c1ccc2nc(C3=NCCN3)ccc2c1 [BU-224] | Calu-3 | % | 119
CC(C)c1nc(N(C)S(C)(=O)=O)nc(-c2ccc(F)cc2)c1/C=C/[C@@H](O)C[C@@H](O)CC(=O)O [rosuvastatin] | Calu-3 | % | 103
O=c1[nH]cc(F)c(=O)[nH]1 [5-fluorouracil] | Calu-3 | % | 90.5
CCC(=O)OCC(=O)[C@@]1(OC(=O)CC)[C@@H](C)C[C@H]2[C@@H]3CCC4=CC(=O)C=C[C@]4(C)[C@@]3(Cl)[C@@H](O)C[C@@]21C [beclomethasone-dipropionate] | Calu-3 | % | 88.6

====

Overview of recorded cell viability for various molecules
Tested on: Caco-2
method description: cell viability relative to DMSO; higher = less toxic
condition label: 72 h; 10000 nM

entry smiles | measured on | cell viability / %
O=C1CCC2CCC(=O)N12 | Caco-2 | 89.1
CS(=O)(=O)c1ccc(C2=C(c3ccccc3)C(=O)OC2)cc1 | Caco-2 | 92.7
c1ccc2nc(C3=NCCN3)ccc2c1 | Caco-2 | 90.2
C[C@]12COC(=O)C[C@@H]1CC[C@@H]1[C@@H]2CC[C@@]2(C)[C@H]1CC[C@]2(C)O | Caco-2 | 106
OCc1cncc(F)c1 | Caco-2 | 106
Cn1cc(C[C@@H](N)C(=O)O)c2ccccc21 | Caco-2 | 104
O=C1CCCCCCCCCCCCCCO1 | Caco-2 | 102
